- System: Bacillus subtilis DB104 (SP-AmyQ fusion secretion)
- assay: AmyQ secretion efficiency, weighted average sort bin (1 = best secretion, 10 = worst) (bin number (weighted average, 1-10)); higher = lower secretion efficiency
Please provide measured AmyQ secretion efficiency for the entries that follow.
Form field (numeric): enter value without unit.

GET /value?item= "MKWMCSICCAAVLLAGGAAQADDE" &field=AmyQ secretion efficiency returns 6.18

GET /value?item= "MLKRTSFVSSLFISSAVLLSILLPSGQIHAQSA" &field=AmyQ secretion efficiency returns 2.68

GET /value?item= "MKKCLLFLTTIALILKRRTNAFAKNT" &field=AmyQ secretion efficiency returns 7.37

GET /value?item= "MRRKKKRVLTMCFLGLILFVPTALADNS" &field=AmyQ secretion efficiency returns 3.09

GET /value?item= "MLKKKWMVGLLAGCLAAGGFSYNGFATEN" &field=AmyQ secretion efficiency returns 6.08

GET /value?item= "MKSKGSIMACLILFSFTITTVTFINTETISAFSN" &field=AmyQ secretion efficiency returns 5.25

GET /value?item= "MKKWMAGLFLAAAVLLCLMVPQQQQGASS" &field=AmyQ secretion efficiency returns 6.69

GET /value?item= "MKKWMAGLFLAAAVLLCLMVPQQCQGASS" &field=AmyQ secretion efficiency returns 2.09

GET /value?item= "MRKKRVITCVMAASLTLGSLLPAGYLSAKED" &field=AmyQ secretion efficiency returns 4.34

GET /value?item= "MRGKSAVLLSLIMLIAGFLISFHFQM" &field=AmyQ secretion efficiency returns 7.78

GET /value?item= "MLCKRRKRKSAIASFPVSAQAKDQ" &field=AmyQ secretion efficiency returns 6.78

GET /value?item= "MKKTIMSFVAVAALSTTAFGAHISAKEI" &field=AmyQ secretion efficiency returns 4.65

GET /value?item= "MKRTRIPMYLALGAALTIAPLSFASAEEN" &field=AmyQ secretion efficiency returns 3.6

GET /value?item= "MKKAFILSAAAAVGLFTFGGVQQVSAKEL" &field=AmyQ secretion efficiency returns 3.11
